- Tested System: HPK1 (Homo sapiens, UniProt Q92918)
- Sequence (Q92918 whole entry): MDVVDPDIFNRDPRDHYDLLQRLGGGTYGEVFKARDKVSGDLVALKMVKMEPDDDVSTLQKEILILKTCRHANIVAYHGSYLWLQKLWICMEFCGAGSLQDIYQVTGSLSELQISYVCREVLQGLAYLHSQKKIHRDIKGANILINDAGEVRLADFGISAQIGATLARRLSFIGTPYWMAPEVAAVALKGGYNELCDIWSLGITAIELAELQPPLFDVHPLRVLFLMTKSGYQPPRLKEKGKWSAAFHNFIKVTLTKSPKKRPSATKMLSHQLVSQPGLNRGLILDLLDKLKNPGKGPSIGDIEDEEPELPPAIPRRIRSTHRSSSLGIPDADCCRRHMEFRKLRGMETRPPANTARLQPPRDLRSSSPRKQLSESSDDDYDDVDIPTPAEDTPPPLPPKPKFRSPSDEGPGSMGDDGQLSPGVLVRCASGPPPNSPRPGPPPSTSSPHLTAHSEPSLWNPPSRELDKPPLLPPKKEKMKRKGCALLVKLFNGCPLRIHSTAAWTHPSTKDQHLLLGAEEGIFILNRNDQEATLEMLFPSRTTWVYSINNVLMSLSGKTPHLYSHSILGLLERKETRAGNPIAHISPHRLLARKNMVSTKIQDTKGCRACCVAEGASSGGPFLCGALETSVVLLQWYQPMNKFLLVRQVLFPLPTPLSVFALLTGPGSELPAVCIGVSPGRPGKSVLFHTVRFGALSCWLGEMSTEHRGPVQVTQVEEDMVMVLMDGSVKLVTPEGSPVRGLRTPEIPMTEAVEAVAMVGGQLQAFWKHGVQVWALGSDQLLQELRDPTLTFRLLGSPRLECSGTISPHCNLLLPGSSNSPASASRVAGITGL
Overview of reported IC50 across a group of compounds:
Reported Endpoint: IC50

{"columns": ["Compound", "Reported Endpoint", "Reported Measurement"],
 "data": [
  ["CN(C)Cc1nc(Nc2ccc(-c3cnc4cc(F)ccn34)c3c2C(=O)NC3)ccc1[C@]1(C)CCCO1 (single isomer, unassigned)", "IC50", "≤ 100 nM"],
  ["CN1CCN(C(=O)[C@H]2CCOC2)c2ccc(Nc3ccc(-c4cnc5cc(F)ccn45)c4c3C(=O)NC4)nc2C1 (single isomer, unassigned)", "IC50", "100 to 1000 nM"],
  ["CO[C@H]1C[C@H](Oc2ccc(Nc3ccc(-c4cnc5cc(F)ccn45)c4c3C(=O)NC4)nc2CN(C)C)C1", "IC50", "≤ 100 nM"],
  ["CN(C)Cc1nc(Nc2ccc(-c3cnc4cc(F)ccn34)c3c2C(=O)NC3)ccc1C1(C)CCOCC1", "IC50", "≤ 100 nM"],
  ["CN(C)Cc1nc(Nc2ccc(-c3cnc4cc(F)ccn34)c3c2C(=O)NC3)ccc1[C@@H]1COCCO1 (single isomer, unassigned)", "IC50", "≤ 100 nM"]
]}
